Biological target: T1, Human CD19-his protein (human, UniProt P15391 20-291)
T1 construct: bought protein; also called recombinant human CD19-His; CD19 full-length protein; not shown: His tag
T1 sequence (looked up): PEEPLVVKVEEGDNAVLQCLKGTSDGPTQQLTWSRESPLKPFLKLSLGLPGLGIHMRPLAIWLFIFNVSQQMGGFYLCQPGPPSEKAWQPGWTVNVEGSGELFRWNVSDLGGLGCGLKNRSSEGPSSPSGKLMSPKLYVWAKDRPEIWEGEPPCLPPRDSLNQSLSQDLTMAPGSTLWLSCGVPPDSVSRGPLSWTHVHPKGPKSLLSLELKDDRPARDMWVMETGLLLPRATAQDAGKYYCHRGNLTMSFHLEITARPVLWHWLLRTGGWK
Assay: SPR Biacore, Ab captured on Protein A, CD19-His analyte
pKd: −log10 of the molar value.
Measured Property: pKd

INSERT INTO results (binder, experimental_value) VALUES
  ('F4.145.9 (antibody, human IgG1, V domains shown, human-murine chimeric antibody, human IgG1 constant) VH: EVQLVESGGGLVKPGGSLKLSCAAAGFAFSSYDMSWVRQIPEKRLEWVAYISAGGGNTYFLDTVKGRFTISRDHAKNTLSLQMSSLKSEDTAMYFCVRHGDYYRYFYAMDYWGQGSSVTVSS VL: DIVMTQSHKFMSTSVGDRVSITCKASQDVGTAVAWSQQKPGQSPKLLIYWASTRHTGVPDRFTGSGSGTDFTLTISNVQSEDLADYFCQQFVTYPYTFGGGTKLEIK', 8.43),
  ('F5.10.6 (antibody, human IgG1, V domains shown, human-murine chimeric antibody, human IgG1 constant) VH: DVQLQESGPGLVKPSQSLSLTCSVTDYSITSGYYWTWIRQFPGNKLEWMGYISYDGSTNYNPSLKNRFSITRDTSKNQFFLKLNSVIIEDTATYYCARDRMSTTWYFDVWGTGTTVTVSS VL: DIVLTQSPASLAVSLGQRATISCRASESVDNYGISFMHWYQQKPGQPPKLLIYRASKTESGIPARFSGSGSRTDFTLTINPVETDDVATYYCQQSNKYPRTFGGGTKVEIK', 8.74),
  ('F6.5.20 (antibody, human IgG1, V domains shown, human-murine chimeric antibody, human IgG1 constant) VH: QVQLQQPGAELVKPGASVKLSCKASGYTFTSYWMQWVKQRPGQGLEWIGEIDPSDSYTNYNQKFKGKASLTVDTSSSTAYMQLSSLTSEDSAVYYCARWGLLRNYYVMDYWGQGTSVTVSS VL: EIVLTQSPTTMAASPGEKITITCSASSSISSNYLHWYQQKPGFSPKLLIYRTSNLASGVPARFSGSGSGTSYSLTIGTMEAEDVATYYCQQGSSIPRMLTFGAGTKLELK', 8.28);
